Entry source: PubChem BioAssay AID1159580

test: chemical genetic growth profiling, strain panel (AID 1159580);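 further: tested at 20 µM; growth read once vehicle control cultures reached saturation at 30 °C; 1 = growth at the plate median or of vehicle wells; lower values mean less growth of the strain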; settings: S. cerevisiae deletion strains, growth OD, locus YJL129C, strain trk1
In all, about 5,500 compounds went through this assay and about 2,000 (36%) were called active. Not shown: some 18% with an inconclusive outcome. No stated cut-off is given here; in the data, active means normalized growth mostly below about 0.91 (no sharp cut-off); inconclusive means no clear call, values can overlap the other calls; inactive means mostly above about 0.92. Some of the results follow.
Would you mind answering with one of these outcomes? active, inactive

Reference set (2 entries):
CCCCCCCCCCCCCCCC[N+](C)(C)C :: active
CC(=O)O[C@@H]1C[C@@]2(C)C(CC[C@@H]2C(C)=O)C2CCC3=CC(=O)CC[C@]3(C)C21 (stereo partly specified) :: inactive

Now turn to the next molecule.
Request: // outcome(item) with item = ClC1=C(Cl)C2(Cl)C3C(Cl)C=CC3C1(Cl)C2(Cl)Cl (stereo unspecified)
Response: active

###

experiment: chemical genetic growth profiling, strain panel (AID 1159580);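 further: tested at 20 µM; growth read once vehicle control cultures reached saturation at 30 °C; 1 = growth at the plate median or of vehicle wells; lower values mean less growth of the strain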; conditions: S. cerevisiae deletion strains, growth OD, locus YPR119W, strain clb2, active compounds read low
The campaign covered roughly 5,500 compounds. About 2,000 (36%) were called active. Another 18% or so got no clear call; they are omitted. This is one part of the list.
Measured parameter: normalized growth
When you answer, write just the number.

Solved cases (2 shown):
CC(N)CCCC(C)(C)O (stereo unspecified) :: 0.997
NC(=O)c1ccc[n+]([C@@H]2O[C@H](COP(=O)([O-])OP(=O)(O)OC[C@H]3O[C@@H](n4cnc5c(N)ncnc54)[C@H](O)[C@@H]3O)[C@@H](O)[C@H]2O)c1 :: 0.993

Request: Output measured normalized growth for this item: c1cncc(C2CCCCN2)c1 (stereo unspecified)
Response: 0.989

Request: // Input: `CN(C)c1ccc(C(=C2C=CC(=[N+](C)C)C=C2)c2ccc(N(C)C)cc2)cc1` . Output its normalized growth only.
Response: 0.472

Request: Entry CCOC(=O)C1(O)Oc2cc(OC)cc(OC)c2C(=O)C1c1ccccc1 (stereo unspecified) needs its normalized growth filled in; supply it.
Response: 0.96

Request: Return reported normalized growth. Input molecule: `CN(C)C(=S)SSC(=S)N(C)C`
Response: 0.0622

Request: Identify the reported normalized growth for the following entry. `COc1ccc2c(c1OC)C(=O)O[C@H]2[C@H]1c2cc3c(cc2CCN1C)OCO3`
Response: 1.01

Request: Give the value of normalized growth reported for the following: CCOC(=O)C(=O)C1(C(=O)OCC)Oc2cc(OC)cc(OC)c2C(=O)C1c1ccccc1 (stereo unspecified)
Response: 0.946

Request: Give normalized growth for `COP(=O)(OC)OC=C(Cl)Cl`
Response: 0.997

Request: Tell us which normalized growth value is on record for `CC1(C)OC(=O)NC1=O`
Response: 0.977

Request: Answer with the recorded normalized growth for the molecule listed here: `O=C1C=CC(=C(c2ccc(O)cc2)c2ccc(O)cc2)C=C1`
Response: 0.979

###

assay: chemical genetic growth profiling, strain panel (AID 1159580);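 further: tested at 20 µM; growth read once vehicle control cultures reached saturation at 30 °C; 1 = growth at the plate median or of vehicle wells; lower values mean less growth of the strain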; details: S. cerevisiae deletion strains, growth OD, locus YDL108W, strain KIN28, active compounds read low
The campaign covered roughly 5,500 compounds. About 2,000 (36%) were called active. Another 18% or so got no clear call; they are omitted. This is one part of the list.
Measured parameter: normalized growth

O=c1c(Sc2ccc(Cl)cc2)c(Sc2ccc(Cl)cc2)c1=O :: 0.967 (inactive)
COc1ccc(NNC(=O)c2sc3ccccc3c2Cl)cc1 :: 0.93 (inactive)
Cc1ccccc1C(=O)Oc1ccc(C(F)(F)F)cc1[N+](=O)[O-] :: 0.964 (inactive)
O=C(N/C=C/c1ccsc1)Nc1cc(C(F)(F)F)cc(C(F)(F)F)c1 :: 0.987 (inactive)
S=C(Nc1ccc(Cl)cc1Cl)N(c1cccc(Cl)c1)c1nc2ccccc2s1 :: 0.955 (inactive)

Now take the following compound into account.
Request: Let me know recorded normalized growth for `O=C(CSc1nnnn1-c1ccccc1)c1ccccc1` , thanks.
Response: 0.947 (inactive)
